runDescription: Selectivity ratio of CC50 for mouse J774A1 cells to IC50 for promastigote stage of Leishmania amazonensis WHOM/BR/75/JOSEFA
Format: ADME, cell-based, J774.A1
runConditions: read-out: Ratio CC50/IC50
assayEndpoint: selectivity ratio

smi	observed
CCCCNc1nc2cc(Br)ccc2nc1S(C)(=O)=O	28.3
COc1ccc2nc(Cl)c(SC)nc2c1	9.8
COc1ccc2nc(Cl)c(NCc3ccccc3)nc2c1	5.4
COc1ccc2nc(SC)c(NCCC(C)C)nc2c1	3.3
Clc1ccc2nc(-c3ccccc3)c(-c3ccccc3)nc2c1	6.6
COc1ccc2nc(S(C)(=O)=O)c(NCCC(C)C)nc2c1	5
COc1ccc2nc(S(C)(=O)=O)c(NCC(C)C)nc2c1	3.6
CSc1nc2ccccc2nc1Cl	13.5
COc1ccc2nc(N(C)C)c(SC)nc2c1	5.9
COc1ccc2nc(-c3ccccc3)c(S(C)(=O)=O)nc2c1	4.1
COc1ccc2nc(NCC(C)C)c(SC)nc2c1	6.7
COc1ccc2nc(-c3ccccc3)c(NCCO)nc2c1	4.8
CS(=O)(=O)c1nc2ccccc2nc1NCCO	13
CSc1nc2ccccc2nc1NCCO	2.9

---

Each entry below carries its recorded selectivity ratio.
runDescription: Selectivity ratio of CC50 to IC50 for promastigote stage of Leishmania amazonensis WHOM/BR/75/JOSEFA
Parameters: reference not given here

compound	selectivity ratio
COc1ccc2nc(S(C)(=O)=O)c(Cl)nc2c1	7.6
CS/C(=C/[N+](=O)[O-])Nc1ccc(N(C)C)cc1	18.9
CCCCNc1nc2cc(OC)ccc2nc1SC	3.5
CS(=O)(=O)c1nc2ccccc2nc1NCCO	13
COc1ccc2nc(NC3CCCCC3)c(S(C)(=O)=O)nc2c1	18.1
C[S+]([O-])c1nc2ccc(Cl)cc2nc1Cl (stereo not drawn)	108
COc1ccc(-c2nc3ccc(Cl)cc3nc2-c2ccccc2)cc1	9.5
COc1ccc2nc(Cl)c(NCc3ccccc3)nc2c1	5.4
CCCCNc1nc2cc(Cl)ccc2nc1SC	4.6
COc1ccc2nc(NCC(C)C)c(S(C)(=O)=O)nc2c1	22.8
COc1ccc2nc(N(C)C)c(SC)nc2c1	5.9
COc1ccc(-c2nc3ccccc3nc2-c2ccc(OC)cc2)cc1	19.7
CSc1nc2ccccc2nc1NCCO	2.9

---

runDescription: Selectivity ratio of CC50 for monkey LLC-MK2 cells to IC50 for epimastigote stage of epimastigote stage of Trypanosoma cruzi Y

smi	selectivity ratio
CS/C(=C/[N+](=O)[O-])Nc1ccc(N(C)C)cc1	6.6
COc1ccc2nc(Cl)c(NCc3ccccc3)nc2c1	22.2
COc1ccc2nc(SC)c(NCCC(C)C)nc2c1	0.7
CSc1nc2ccc(Cl)cc2nc1Cl	16.1

---

runDescription: Selectivity ratio of CC50 for monkey LLC-MK2 cells to IC50 for epimastigote stage of epimastigote stage of Trypanosoma cruzi Y
# note: boundary value 5 maps to Not met; selectivity ratio below it maps to Met

compound	labelClass
COc1ccc2nc(NC3CCCCC3)c(S(C)(=O)=O)nc2c1	Not met
COc1ccc2nc(Nc3ccccc3)c(Nc3ccccc3)nc2c1	Met
CCCCNc1nc2ccc(OC)cc2nc1NCc1ccccc1	Met
CCCCNc1nc2ccc(OC)cc2nc1S(C)(=O)=O	Not met
Clc1cc2nc(-c3ccccc3)c(-c3ccccc3)nc2cc1Cl	Not met
C[S+]([O-])c1nc2ccc(Cl)cc2nc1Cl (stereo unspecified)	Not met
Clc1ccc2nc(-c3ccccc3)c(-c3ccccc3)nc2c1	Not met
COc1ccc2nc(-c3ccccc3)c(NCCN3CCCCC3)nc2c1	Met
CS(=O)(=O)c1nc2ccc(Br)cc2nc1Cl	Not met
COc1ccc2nc(N(C)C)c(S(C)(=O)=O)nc2c1	Not met
c1ccc(-c2nc3ccccc3nc2-c2ccc(OCCN3CCOCC3)cc2)cc1	Met
CCCCNc1nc2ccc(OC)cc2nc1SC	Met
COc1ccc2nc(N(C)C)c(SC)nc2c1	Not met
CS(=O)(=O)c1nc2ccc(Br)cc2nc1NCCO	Met
COc1ccc2nc(-c3ccccc3)c(S(C)(=O)=O)nc2c1	Not met
CCCCNc1nc2cc(Br)ccc2nc1S(C)(=O)=O	Not met

# credit: ChEMBL document CHEMBL3396970
